TARGET: T1, human IL-25 expressed with a C-terminal myc-myc-hexahistidine tag (human)
T1 construct: also called human IL-25-MMH; hIL-25-MMH
T1 chain: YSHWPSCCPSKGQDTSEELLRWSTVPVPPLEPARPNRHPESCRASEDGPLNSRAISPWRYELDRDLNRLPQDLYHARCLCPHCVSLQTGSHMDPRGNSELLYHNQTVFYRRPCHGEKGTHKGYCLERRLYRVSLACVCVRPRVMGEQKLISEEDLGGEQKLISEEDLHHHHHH
PROTOCOL SUMMARY: SPR Biacore, captured mAb, 25°C;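 further: biacore 4000 SPR with IL-25-MMH as analyte over purified anti-IL-25 antibodies, association and dissociation rates derived from fitting sensorgrams to a 1:1 binding model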
ATTRIBUTE MEASURED: 100 nM Human IL-25-MMH Bound (RU)

BINDER	RESULT UNIT	QUANTITATIVE READOUT
H4H10883P (antibody, human IgG4, V domains shown) VH: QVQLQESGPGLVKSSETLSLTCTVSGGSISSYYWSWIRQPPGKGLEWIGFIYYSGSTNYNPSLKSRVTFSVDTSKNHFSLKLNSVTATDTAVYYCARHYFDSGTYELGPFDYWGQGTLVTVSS VL: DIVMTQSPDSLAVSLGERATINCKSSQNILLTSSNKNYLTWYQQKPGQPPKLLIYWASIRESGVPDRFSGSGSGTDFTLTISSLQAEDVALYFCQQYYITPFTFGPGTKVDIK	RU	56
H4H10907P (antibody, human IgG4, V domains shown) VH: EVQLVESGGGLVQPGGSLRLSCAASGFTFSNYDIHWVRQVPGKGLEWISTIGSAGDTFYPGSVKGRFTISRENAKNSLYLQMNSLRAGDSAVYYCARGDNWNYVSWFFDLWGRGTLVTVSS VL: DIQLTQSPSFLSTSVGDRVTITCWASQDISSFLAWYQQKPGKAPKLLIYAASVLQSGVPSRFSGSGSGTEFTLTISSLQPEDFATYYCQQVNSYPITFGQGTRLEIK	RU	40
H4H10863P (antibody, human IgG4, V domains shown) VH: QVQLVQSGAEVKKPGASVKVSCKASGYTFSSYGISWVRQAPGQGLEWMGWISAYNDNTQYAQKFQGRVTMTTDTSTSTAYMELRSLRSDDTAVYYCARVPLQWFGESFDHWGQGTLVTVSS VL: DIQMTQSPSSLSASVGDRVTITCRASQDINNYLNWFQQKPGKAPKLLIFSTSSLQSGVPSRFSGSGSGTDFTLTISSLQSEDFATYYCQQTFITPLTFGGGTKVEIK	RU	34
